Target: T1, OCT2 DBD (POU domain) (Homo sapiens, UniProt P09086 195-357)
T1 sequence: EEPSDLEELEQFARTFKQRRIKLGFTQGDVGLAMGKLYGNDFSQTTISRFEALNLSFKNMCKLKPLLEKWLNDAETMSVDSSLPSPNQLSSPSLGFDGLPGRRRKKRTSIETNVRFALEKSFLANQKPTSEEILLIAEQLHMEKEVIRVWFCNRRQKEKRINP
Assay: fluorescence anisotropy; 0.20 M Na+, no poly[d(I-C)]; FP: 5 nM probe, 10 mM Bis-Tris pH 6.5, 0.01% BSA, 0.15-0.35 M NaCl, 25 C overnight, Hill fit with nH = 2 (macroscopic KD of dimer); EMSA: 10 nM DNA, PBS, 25 C o
Conditions: protein: recombinant; tags: N-terminal His6 removed by thrombin; chain copies: 2; label: 5'-HEX; blunt; self-complementary, 2 copies of the strand
endpointLabel: Kd (nM)
Entry rule: numbers only, all in nM.

Query: Answer with the recorded Kd for the binder listed here: MORE 22-bp, HEX-labelled (dsDNA) DNA 1: TCCTCATGCATATGCATGAGGA DNA 2: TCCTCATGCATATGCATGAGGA
Result: 29
